This collection of values is drawn from paper PMC11931385.

target under test: T1, Rb^P E440K (human, UniProt P06400 380-788, E440K)
T1 construct: also called variant 1
T1 sequence (looked up): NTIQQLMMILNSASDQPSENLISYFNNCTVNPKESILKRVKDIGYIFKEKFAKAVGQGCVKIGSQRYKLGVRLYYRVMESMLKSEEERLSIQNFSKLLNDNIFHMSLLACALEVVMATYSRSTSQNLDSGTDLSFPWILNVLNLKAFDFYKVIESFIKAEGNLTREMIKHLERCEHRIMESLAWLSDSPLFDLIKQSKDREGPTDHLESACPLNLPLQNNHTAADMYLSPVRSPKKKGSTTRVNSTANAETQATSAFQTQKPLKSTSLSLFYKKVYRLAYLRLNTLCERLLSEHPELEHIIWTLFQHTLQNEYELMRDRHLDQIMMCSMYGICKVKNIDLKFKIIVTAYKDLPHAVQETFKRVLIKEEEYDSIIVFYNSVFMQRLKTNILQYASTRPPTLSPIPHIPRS
method summary: fluorescence polarisation; 25 °C; unlabeled Rb^P titrated against 1.5 nM TMR-E2F1^TD or 7.5 nM TMR-E7^LxCxE; 25 mM Tris pH 8.0, 200 mM NaCl, 1 mM DTT, 0.1% Tween-20; 2 min incubation; quadratic fit; apparent Kd for the variants, Kd for WT
test conditions: both partners purified
pKd: −log10 of the molar value. No end group written: not given here. TMR = tetramethyl rhodamine dye

| binder | pKd |
| --- | --- |
| {TMR}-GEGIRDLFDCDFGDLTPLD (also called E2F^TD; source: synthetic peptide, bought: GenScript) [TMR-E2F1^TD, peptide of the E2F1 transactivation domain] | 7.92 |
| DLYCYEQLN (also: TMR label, position not given here, source: synthetic peptide, bought: GenScript) [TMR-E7^LxCxE, LxCxE peptide of the E7 oncoprotein from HPV] | 8.30 |
